Just for reference, ChEMBL document CHEMBL1909046 is where these values come from.

Target: Cholecystokinin receptor type A (Homo sapiens); further: in other assays of this panel Not Active means under 50% inhibition at 10 µM
Sequence (P32238 whole entry): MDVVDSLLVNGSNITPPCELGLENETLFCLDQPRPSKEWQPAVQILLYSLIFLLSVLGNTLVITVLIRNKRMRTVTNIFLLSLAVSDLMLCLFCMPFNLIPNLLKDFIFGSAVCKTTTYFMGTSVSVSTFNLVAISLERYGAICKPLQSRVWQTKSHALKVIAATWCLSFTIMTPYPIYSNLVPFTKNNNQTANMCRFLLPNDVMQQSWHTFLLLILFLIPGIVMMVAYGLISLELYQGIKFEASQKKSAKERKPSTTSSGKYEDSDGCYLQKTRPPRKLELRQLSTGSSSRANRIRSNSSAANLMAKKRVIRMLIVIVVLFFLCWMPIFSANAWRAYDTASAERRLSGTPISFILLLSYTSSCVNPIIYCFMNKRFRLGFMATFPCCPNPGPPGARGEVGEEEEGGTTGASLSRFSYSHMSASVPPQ
Format: cell membranes, Membrane
Conditions: 1321-n1
PROPERTY_MEASURED: IC50

SUBSTANCE | IC50
SODIUM ORTHOVANAD | Not Active
NYSTATIN | Not Active
GADOPENTETATE DIMEGLUMINE | Not Active
GENTAMICIN | Not Active
MANGANESE CHLORIDE ANHYDROUS | Not Active

Enquiry: Which IC50 is listed for "GRAMICIDIN" ?
Return: Not Active

Enquiry: Which IC50 is listed for "AURANOFIN" ?
Return: Not Active

====

Experiment: DRUGMATRIX: Calcium Channel Type L, Dihydropyridine radioligand binding (ligand: [3H] Nitrendipine)
Assay type: cell membranes, Rattus norvegicus, Wistar, Cerebral cortex, Membrane
Details: Not Active = under 50% inhibition at 10 µM; read-out: IC50
PROPERTY_MEASURED: pIC50
# pIC50: negative log10 of molar concentration; output just the value

Enquiry: Which pIC50 is listed for Cc1c(C)c2c(c(C)c1O)CCC(C)(CN1CCN(c3cc(N4CCCC4)nc(N4CCCC4)n3)CC1)O2 (stereo unspecified) ?
Return: 5.78

====

Test: DRUGMATRIX: Atrial Natriuretic Factor (ANF) radioligand binding (ligand: [125I] ANF (rat))
Assay type: cell membranes, Cavia porcellus, Dunkin-Hartley, Adrenal gland, Membrane
Settings: Not Active = under 50% inhibition at 10 µM

COMPOUND | IC50
CC[C@@H](C(=O)[C@@H](C)[C@@H](O)[C@H](C)[C@@H]1O[C@@H]([C@@H](CC)C(=O)O)CC[C@@H]1C)[C@H]1O[C@]2(C=C[C@@H](O)[C@]3(CC[C@@](C)([C@H]4CC[C@](O)(CC)[C@H](C)O4)O3)O2)[C@H](C)C[C@@H]1C [SALINOMYCIN] | Not Active
C[C@@H]1C[C@H]2[C@@H]3CCC4=CC(=O)C=C[C@]4(C)[C@@]3(F)[C@@H](O)C[C@]2(C)[C@H]1C(=O)CO [DESOXIMETASONE] | Not Active

====

Molecular target: Melanocortin receptor 4 (Homo sapiens, UniProt P32245); further: in other assays of this panel Not Active means under 50% inhibition at 10 µM
Sequence (P32245 whole entry): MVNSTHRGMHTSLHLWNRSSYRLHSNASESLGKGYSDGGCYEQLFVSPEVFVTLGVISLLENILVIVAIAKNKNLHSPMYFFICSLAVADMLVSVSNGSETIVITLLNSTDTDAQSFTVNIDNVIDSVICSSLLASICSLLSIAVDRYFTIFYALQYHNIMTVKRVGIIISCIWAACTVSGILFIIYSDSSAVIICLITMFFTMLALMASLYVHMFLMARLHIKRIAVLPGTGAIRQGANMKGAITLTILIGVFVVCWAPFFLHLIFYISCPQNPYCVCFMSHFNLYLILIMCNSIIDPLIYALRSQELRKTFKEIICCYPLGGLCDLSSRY
Type: cell membranes, HEK293, Membrane
Details: hek293; read-out: IC50
PROPERTY_MEASURED: pIC50
# pIC50: negative log10 of molar concentration; output just the value

Enquiry: Which pIC50 is listed for "GRAMICIDIN" ?
Return: 5.48

====

Target: cGMP-specific 3',5'-cyclic phosphodiesterase (Homo sapiens, UniProt O76074)
Test: DRUGMATRIX: Phosphodiesterase PDE5 enzyme inhibition (substrate: [3H]cGMP + cGMP)
Type: tissue-based, Platelet
Conditions: platelet; Not Active = under 50% inhibition at 10 µM
PROPERTY_MEASURED: Ki

Answered cases to consult:
SUBSTANCE | Ki
AURANOFIN | Not Active
GENTAMICIN | Not Active
GADOPENTETATE DIMEGLUMINE | Not Active
MANGANESE CHLORIDE ANHYDROUS | Not Active
NYSTATIN | Not Active

Enquiry: Which Ki is listed for "GRAMICIDIN" ?
Return: Not Active

Enquiry: Which Ki is listed for SODIUM ORTHOVANAD ?
Return: Not Active
